Molecular target: human ACVR2A (human, UniProt P27037 20-135, limits assumed); also: test concentration or dose not given here
Sequence (P27037 20-135 limits assumed): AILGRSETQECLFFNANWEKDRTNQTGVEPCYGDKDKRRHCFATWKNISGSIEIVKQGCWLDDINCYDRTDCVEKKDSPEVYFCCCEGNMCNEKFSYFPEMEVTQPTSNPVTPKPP
Assay: ELISA
measurement_label: optical density (OD)
Numbers only, in OD.

Lab note: each binder below needs its optical density filled in.
1. 374_H08 (antibody, V domains shown, VH/VL only) VH: EVQLLESGGGLVQPGGSLRLSCAASGFTFDSYSMNWVRQAPGKGLEWVSGINYNGGYTGYADSVKGRFTISRDNSKNTLYLQMNSLRAEDTAVYYCARSATWHDTHLDYWGQGTLVTVSS VL: DIQMTQSPSSLSASVGDRVTITCRASQSILSYLNWYQQKPGKAPKLLIYAATSLHSGVPSRFSGSGSGTDFTLTISSLQPEDFATYYCQQSYENPLTFGGGTKVEIK
2. 376_H10 (antibody, V domains shown, VH/VL only) VH: EVQLLESGGGLVQPGGSLRLSCAASGFTFDSYSMNWVRQAPGKGLEWVSGINYNSGYKSYADSVKGRFTISRDNSKNTLYLQMNSLRAEDTAVYYCARSANWHDTALDYWGQGTLVTVSS VL: DIQMTQSPSSLSASVGDRVTITCRASQSILTYLNWYQQKPGKAPKLVIYAATSRHSGVPSRFSGSGSGTDFTLTISSLQPEDFATYYCQQSYDSPLTFGGGTKVEIK

1. 3.31
2. 3.28

Lab note: each binder below needs its optical density filled in.
1. 365_D05 (antibody, V domains shown, VH/VL only) VH: EVQLLESGGGLVQPGGSLRLSCAASGFTFDSYSMNWVRQAPGKGLEWVAGINYNGGYTSYADSVKGRFTISRDNSKNTLYLQMNSLRAEDTAVYYCARSATWHDTHLDYWGQGTLVTVSS VL: DIQMTQSPSSLSASVGDRVTITCRASQSILTYVNWYQQKPGKAPKLLIYAATSRASGVPSRFSGSGSGTDFTLTISSLQPEDFATYYCQQSYNSPLTFGGGTKVEIK
2. 368_F12 (antibody, V domains shown, VH/VL only) VH: EVQLLESGGGLVQPGGSLRLSCAASGFTFDDYSMNWVRQAPGKGLEWVASINYNSGYKSYADSVKGRFTISRDNSKNTLYLQMNSLRAEDTAVYYCARSATWHDTHLDYWGQGTLVTVSS VL: DIQMTQSPSSLSASVGDRVTITCRASQSIVTYLNWYQQKPGKAPKLVIYAATSLASGVPSRFSGSGSGTDFTLTISSLQPEDFATYYCQQSYDLPLTFGGGTKVEIK

1. 2.58
2. 1.69

Cited source: patent US20210380703A1
